Test: total protein half-life in vivo (active degradation + dilution); higher = more stable protein
Conditions: wild type E. coli NCM3722; growth: C-lim chemostat; doubling time 12 h
For each record, write down the corresponding total protein half-life in vivo.
Numbers only, in h.

Give total protein half-life in vivo for each of the items listed below.
1. MKIAFIGEAVSGFGGMETVIRDVITTFRQQHIQSEMFFFCRNDKMDKGWLEGIKYSCSFSNIRLGFLRRAKHIHALSKWLQEYQPDIVICIDVISCLFAAKARKKSGIDMPVFSWPHFSLDHKKHAEYITCADYHLAISSGIKQQMINRGVAESTINVIFNPVETKDSVIPAPEEGETATFIYVGRMKFEGQKRVKDLLDGLSQAKGNWKLHVLGDGSDFEKCQAYGRELNIDDRIVWYGWQQYPWELVQQDIEKVSALLLTSSFEGFPMTLLEALSWGIPCISADCVSGPADIIQPDVNGHLYQPGDIAGFVTLLNKYIAGEIHIEHEKIPASIDEFYQSKYYDRLHKVIISAISRRK
2. MANRMILNETAWFGRGAVGALTDEVKRRGYQKALIVTDKTLVQCGVVAKVTDKMDAAGLAWAIYDGVVPNPTITVVKEGLGVFQNSGADYLIAIGGGSPQDTCKAIGIISNNPEFADVRSLEGLSPTNKPSVPILAIPTTAGTAAEVTINYVITDEEKRRKFVCVDPHDIPQVAFIDADMMDGMPPALKAATGVDALTHAIEGYITRGAWALTDALHIKAIEIIAGALRGSVAGDKDAGEEMALGQYVAGMGFSNVGLGLVHGMAHPLGAFYNTPHGVANAILLPHVMRYNADFTGEKYRDIARVMGVKVEGMSLEEARNAAVEAVFALNRDVGIPPHLRDVGVRKEDIPALAQAALDDVCTGGNPREATLEDIVELYHTAW [P0A9S1]

Result block:
10.9
10.6

====

Answer each item with its documented total protein half-life in vivo.
Assay: total protein half-life in vivo (active degradation + dilution); higher = more stable protein
Details: E. coli NCM3722 delta-clpP; growth: N-lim chemostat; doubling time 6 h
Give bare numbers, in h.

MMLSKKNSETLENFSEKLEVEGRSLWQDARRRFMHNRAAVASLIVLVLIALFVILAPMLSQFAYDDTDWAMMSSAPDMESGHYFGTDSSGRDLLVRVAIGGRISLMVGVAAALVAVVVGTLYGSLSGYLGGKVDSVMMRLLEILNSFPFMFFVILLVTFFGQNILLIFVAIGMVSWLDMARIVRGQTLSLKRKEFIEAAQVGGVSTSGIVIRHIVPNVLGVVVVYASLLVPSMILFESFLSFLGLGTQEPLSSWGALLSDGANSMEVSPWLLLFPAGFLVVTLFCFNFIGDGLRDALDPKDR [P0AFH6]; 5.51
MLDNVLRIATRQSPLALWQAHYVKDKLMASHPGLVVELVPMVTRGDVILDTPLAKVGGKGLFVKELEVALLENRADIAVHSMKDVPVEFPQGLGLVTICEREDPRDAFVSNNYDSLDALPAGSIVGTSSLRRQCQLAERRPDLIIRSLRGNVGTRLSKLDNGEYDAIILAVAGLKRLGLESRIRAALPPEISLPAVGQGAVGIECRLDDSRTRELLAALNHHETALRVTAERAMNTRLEGGCQVPIGSYAELIDGEIWLRALVGAPDGSQIIRGERRGAPQDAEQMGISLAEELLNNGAREILAEVYNGDAPA; 4.24
MLCVKNVSLRLPESRLLTNVNFTVDKGDIVTLMGPSGCGKSTLFSWMIGALAEQFSCTGELWLNEQRIDILPTAQRQIGILFQDALLFDQFSVGQNLLLALPATLKGNARRNAVNDALERSGLEGAFHQDPATLSGGQRARVALLRALLAQPKALLLDEPFSRLDVALRDNFRQWVFSEVRALAIPVVQVTHDLQDVPADSSVLDMAQWSENYNKLR; 5.73
MSSNTFTLGTKSVNRLGYGAMQLAGPGVFGPPRDRHVAITVLREALALGVNHIDTSDFYGPHVTNQIIREALYPYSDDLTIVTKIGARRGEDASWLPAFSPAELQKAVHDNLRNLGLDVLDVVNLRVMMGDGHGPAEGSIEASLTVLAEMQQQGLVKHIGLSNVTPTQVAEARKIAEIVCVQNEYNIAHRADDAMIDALAHDGIAYVPFFPLGGFTPLQSSTLSDVAASLGATPMQVALAWLLQRSPNILLIPGTSSVAHLRENMAAEKLHLSEEVLSTLDGISRE; 4.8

Pending sequence:
Query block: Value lookup for total protein half-life in vivo; key = MRRFFWLVAAALLLAGCAGEKGIVEKEGYQLDTRRQAQAAYPRIKVLVIHYTADDFDSSLATLTDKQVSSHYLVPAVPPRYNGKPRIWQLVPEQELAWHAGISAWRGATRLNDTSIGIELENRGWQKSAGVKYFAPFEPAQIQALIPLAKDIIARYHIKPENVVAHADIAPQRKDDPGPLFPWQQLAQQGIGAWPDAQRVNFYLAGRAPHTPVDTASLLELLARYGYDVKPDMTPREQRRVIMAFQMHFRPTLYNGEADAETQAIAEALLEKYGQD
Result block: 6.36
